The origin of these recorded values is patent US5827866A.

t1/2 values, listed per item
# condition.label: rat, in vivo, iv
readout.name: t1/2 (min)

> print(dat)
                         compound.structure  readout.name  display.unit  reported.measurement
1  CN[C@@H](C(=O)N1CCC[C@H]1C(=O)N[C@@H](CCCNC(=N)N)C(=O)c1nc2ccccc2s1)C1CCCCC1          t1/2           min                    42
2  CCOC(=O)c1csc(C(=O)[C@H](CCCNC(=N)N)NC(=O)[C@@H]2CCCN2C(=O)[C@@H](Cc2ccccc2)NC)n1          t1/2           min                    14
3  CN[C@H](Cc1ccc(F)cc1)C(=O)N1CCC[C@H]1C(=O)N[C@@H](CCCNC(=N)N)C(=O)c1nc2ccccc2s1          t1/2           min                    19

* * *

# condition.label: rat, in vivo, iv
t1/2 values, listed per item
readout.name: t1/2 (min)

> print(dat)
                                   compound  reported.measurement
1  CC(=O)N[C@H](Cc1ccccc1)C(=O)N1CCC[C@H]1C(=O)N[C@@H](CCCNC(=N)N)C(=O)c1nc2ccccc2s1.O=C(O)C(F)(F)F [Compound 35]                    11
2  CNC(Cc1ccccc1)C(=O)N1CCCC1C(=O)NC(CCCNC(=N)N)C(=O)c1nccs1 (stereo not drawn) [Compound 4]                    16
3  CN[C@H](Cc1ccccc1)C(=O)N1CCC[C@H]1C(=O)N[C@@H](CCCNC(=N)N)C(=O)c1nc2ccc(F)cc2s1 [Compound 17]                     8
4  CN[C@H](Cc1ccccc1)C(=O)N1CCC[C@H]1C(=O)N[C@@H](CCCNC(=N)N)C(=O)c1nc2ccccc2s1 [Compound 1]                    19
5  CN[C@H](Cc1ccccc1)C(=O)N1CCC[C@H]1C(=O)N[C@@H](CCCNC(=N)N)C(=O)c1nc2ccc3ccccc3c2s1 [Compound 52]                     8
6  CN[C@H](Cc1ccccc1)C(=O)N1CCC[C@H]1C(=O)N[C@@H](CCCNC(=N)N)C(=O)c1nc2ccc(CO)cc2s1 [Compound 15]                    16

* * *

# condition.label: rat, in vivo, iv
t1/2 values, listed per item
readout.name: t1/2 (min)

> print(dat)
                                   molecule  readout.name  display.unit  reported.measurement
1  CN[C@H](Cc1ccccc1)C(=O)N1CCC[C@H]1C(=O)N[C@@H](CCCNC(=N)N)C(=O)c1nc2ccc(C(=O)O)cc2s1          t1/2           min                    25
2  CN[C@H](CC1CCCCC1)C(=O)N1CCC[C@H]1C(=O)N[C@@H](CCCNC(=N)N)C(=O)c1nc2ccccc2s1          t1/2           min                    14
3  CN[C@H](Cc1ccccc1)C(=O)N1CCC[C@H]1C(=O)N[C@@H](CCCNC(=N)N)C(=O)c1nc(C(=O)O)cs1          t1/2           min                    15
4  CN[C@H](Cc1ccccc1)C(=O)N1CCC[C@H]1C(=O)N[C@@H](CCCNC(=N)N)C(=O)c1nc2ccc(C(=O)OC)cc2s1          t1/2           min                    43
5  CN[C@H](Cc1ccccc1)C(=O)N1CCC[C@H]1C(=O)N[C@@H](CCCNC(=N)N)C(=O)c1nc2c(s1)CCCC2          t1/2           min                    17
6  CN[C@H](Cc1c(F)c(F)c(F)c(F)c1F)C(=O)N1CCC[C@H]1C(=O)N[C@@H](CCCNC(=N)N)C(=O)c1nc2ccccc2s1          t1/2           min                     6
7  CNC(C(=O)N1CCCC1C(=O)NC(CCCNC(=N)N)C(=O)c1nc2ccccc2s1)c1ccccc1 (centres unmarked)          t1/2           min                    18
8  CNC(Cc1ccccc1)C(=O)N1CCCC1C(=O)NC(CCCNC(=N)N)C(=O)c1nc2ccccc2[nH]1 (centres unmarked)          t1/2           min                     5
